Property name: melting point

Entry under test: O=C(O)c1ccc(OCCCCn2c(=O)ccn(Cc3ccc4ccccc4c3)c2=O)cc1 [Compound 1005] . Its melting point was 143.5 to 145 °C

Looking up O=C(O)c1ccc(OCCCCCn2c(=O)ccn(CCCCCOc3ccc(F)cc3)c2=O)cc1 [Compound 870] , I see its melting point listed as 133 to 135 °C

Noted for O=C(O)c1ccc(OCCCCn2c(=O)ccn(CCCOc3ccc(Br)cc3)c2=O)cc1 [Compound 873] : its melting point reads 122 to 124 °C

In plain terms, O=C(O)c1ccc(OCCCCn2c(=O)ccn(Cc3cccc4ccccc34)c2=O)cc1 [Compound 601] has a documented melting point of 183 to 184.5 °C

Record summary for O=C(O)c1ccc(OCCCCn2c(=O)ccn(Cc3ccc(Br)c4ccccc34)c2=O)cc1 [Compound 1006] : reported melting point = 195.5 to 197.5 °C

GET /value?item= O=C(O)c1ccc(OCCCCCn2c(=O)ccn(Cc3c4ccccc4cc4ccccc34)c2=O)cc1 [Compound 876] &field=melting point returns 173 to 176 °C
